# Target Or System: T1, Human NPR-B (R&D system) (human, UniProt P20594 23-458, limits assumed)
# T1 construct: Bought protein immobilised on the Biacore chip; also called NBR-B; natriuretic peptide receptor B
# T1 sequence (looked up): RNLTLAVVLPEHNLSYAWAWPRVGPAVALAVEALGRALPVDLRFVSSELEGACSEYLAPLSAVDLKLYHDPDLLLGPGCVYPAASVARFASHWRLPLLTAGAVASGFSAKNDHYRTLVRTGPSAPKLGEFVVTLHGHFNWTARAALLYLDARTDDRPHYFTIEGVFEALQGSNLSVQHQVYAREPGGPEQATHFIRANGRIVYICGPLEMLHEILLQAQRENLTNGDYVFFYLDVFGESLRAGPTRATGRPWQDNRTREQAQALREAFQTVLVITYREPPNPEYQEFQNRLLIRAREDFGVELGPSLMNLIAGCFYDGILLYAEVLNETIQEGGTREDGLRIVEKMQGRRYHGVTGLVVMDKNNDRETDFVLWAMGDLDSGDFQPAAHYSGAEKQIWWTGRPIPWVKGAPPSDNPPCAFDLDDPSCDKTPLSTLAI
# Protocol Summary: SPR (Biacore 3000), FIG. 7C, single-cycle kinetics, NPR-B at 6600 RU on CM5, CNP 0.5-8 nM; differs from Table 32
Value Kind: Kd (nM)
Expressed in nM, but write only the number.

Tell me Kd reported for GLSKGCFGLKLDRIGSMSGLGC (also called C-type natriuretic peptide) [CNP-22]
0.0363
